Target: WDR5 (Homo sapiens (Human), UniProt P61964)
Test: Surface Plasmon Resonance (SPR) assay, KD and residence time
Format: binding
Settings: surface plasmon resonance (SPR); read-out: WDR5 binding affinity (KD)
quantity-kind: pKd
Answers are plain numbers, as −log10 of the molar value.

1) C[C@@H]1CN(c2ccc(-c3cc(NC(=O)c4cn(C)c(=O)cc4C(F)F)c(N4CCN(C)[C@@H](C)C4)cc3F)cn2)C[C@H](C)O1 :: 8.39
2) C[C@@H]1CN(c2cc(F)c(C3=CCN(C(=O)OC4(C)CCC4)C3)cc2NC(=O)c2c[nH]c(=O)cc2C(F)F)C[C@H](C)N1C :: 8.70
3) C[C@@H]1CN(c2cc(F)c(-c3ccc(C(=O)NC(C)(C)CC(C)(C)C)c(F)c3F)cc2NC(=O)c2ccc(F)cc2C(F)(F)F)C[C@H](C)N1C :: 6.82
4) C[C@@H]1CN(c2cc(F)c(C3=CCCN(c4ncc(CN5CCOCC5)cn4)C3)cc2NC(=O)c2c[nH]c(=O)cc2C(F)(F)F)C[C@H](C)N1C :: 8.96
5) C[C@@H]1CN(c2cc(F)c(-c3ccnc(N4CCO[C@@H](C)C4)n3)cc2NC(=O)c2cn(C)c(=O)cc2C(F)(F)F)C[C@H](C)N1C (racemic) :: 8.31

Please examine the following record next.
Lab book: pKd of C[C@@H]1CN(c2cc(F)c(-c3nc(C(=O)NCC4CC4)cs3)cc2NC(=O)c2c[nH]c(=O)cc2C(F)(F)F)C[C@H](C)N1C noted as 8.76
